- Target entity: T1, anti-CD28 scFv (VH-linker 1-VL) (biotinylated (site not stated))
- T1 construct: Captured as biotinylated scFv on neutravidin coated plates in the phage ELISA
- T1 sequence (scFv, as listed by the source): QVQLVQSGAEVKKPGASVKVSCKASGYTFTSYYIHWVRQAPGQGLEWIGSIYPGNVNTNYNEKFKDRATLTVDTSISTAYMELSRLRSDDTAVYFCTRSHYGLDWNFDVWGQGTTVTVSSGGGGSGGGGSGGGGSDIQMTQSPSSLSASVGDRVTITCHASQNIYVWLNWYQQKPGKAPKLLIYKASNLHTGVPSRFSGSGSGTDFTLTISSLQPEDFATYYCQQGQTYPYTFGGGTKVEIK
- Assay method text: phage ELISA; biotinylated scFv on neutravidin plate; anti-M13-HRP;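 also: crude clonal phage supernatant added to wells pre-incubated with soluble CD28 protein or only blocking buffer, then washed, bound phage read out with an HRP-linked anti-M13 antibody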
Property label: CD28 scFv signal
# answer = number (no unit)

See these solved cases before continuing.
{"Binder": "MDWCPRDRWIDCFN (on phage (pIII fusion)) [Phage-226 clonal phage peptide]", "CD28 scFv signal": 0.339}
{"Binder": "MYWCATSMWNRCFV (on phage (pIII fusion)) [Phage-262 clonal phage peptide]", "CD28 scFv signal": 0.398}
{"Binder": "MDWCPRHLWNECFN (on phage (pIII fusion)) [Phage-283 clonal phage peptide]", "CD28 scFv signal": 2.65}
{"Binder": "MDWCPTSFWNRCFH (on phage (pIII fusion)) [Phage-271 clonal phage peptide]", "CD28 scFv signal": 0.087}
{"Binder": "MDWCPRHLWHVCFN (on phage (pIII fusion)) [Phage-264 clonal phage peptide]", "CD28 scFv signal": 2.67}

Q. Find the recorded CD28 scFv signal belonging to MDWCPFDLWHVCYN (on phage (pIII fusion)) [Phage-256 clonal phage peptide] and report it.
A. 2.6

Q. Now give it for MDWCPRDLWSVCFS (on phage (pIII fusion)) [Phage-290 clonal phage peptide] too.
A. 2.5

Q. Now give it for MTWCPTSFWNRCLD (on phage (pIII fusion)) [Phage-233 clonal phage peptide] too.
A. 0.392

Q. Now give it for MDWCPRYLWHECFF (on phage (pIII fusion)) [Phage-301 clonal phage peptide] too.
A. 2.45

Q. Now give it for MDWCPRHLWFECFF (on phage (pIII fusion)) [Phage-300 clonal phage peptide] too.
A. 2.45

Q. Now give it for MDWCPRSLWNYCFN (on phage (pIII fusion)) [Phage-313 clonal phage peptide] too.
A. 2.35

Q. Now give it for MDWCPRDLWYVCFA (on phage (pIII fusion)) [Phage-321 clonal phage peptide] too.
A. 2.22

Q. Now give it for MDWCPRHMWINCFA (on phage (pIII fusion)) [Phage-252 clonal phage peptide] too.
A. 0.92

Q. Now give it for MDWCPMFLWDECFN (on phage (pIII fusion)) [Phage-318 clonal phage peptide] too.
A. 2.29

Q. Now give it for MDWCPSYLWHECFF (on phage (pIII fusion)) [Phage-237 clonal phage peptide] too.
A. 2.61

Q. Now give it for FDFCPTTMWTYCQH (on phage (pIII fusion)) [Phage-220 clonal phage peptide] too.
A. 0.086

Q. Now give it for MDWCPKDRWNDCYF (on phage (pIII fusion)) [Phage-224 clonal phage peptide] too.
A. 1.09

Q. Now give it for VPWCLIISGLDCLN (on phage (pIII fusion)) [Phage-231 clonal phage peptide] too.
A. 0.107

Q. Now give it for MDWCPRALWFECFF (on phage (pIII fusion)) [Phage-234 clonal phage peptide] too.
A. 2.67

Q. Now give it for MDWCPRDLWDECFN (on phage (pIII fusion)) [Phage-310 clonal phage peptide] too.
A. 2.37

Q. Now give it for MDWCPRHLWHECFT (on phage (pIII fusion)) [Phage-317 clonal phage peptide] too.
A. 2.3

Q. Now give it for MVWCMSVGWAVCLN (on phage (pIII fusion)) [Phage-272 clonal phage peptide] too.
A. 0.271

Q. Now give it for MDWCPVFMWNECFN (on phage (pIII fusion)) [Phage-260 clonal phage peptide] too.
A. 2.66

Q. Now give it for MDWCPRSLWFLCFN (on phage (pIII fusion)) [Phage-281 clonal phage peptide] too.
A. 2.71

From: patent US20230357447A1
